# TARGET DESC: T1, human BDCA2 (full-length, cell surface) (human, UniProt Q8WTT0 1-213)
# T1 construct: also called huBDCA2; surface human BDCA2
# T1 sequence: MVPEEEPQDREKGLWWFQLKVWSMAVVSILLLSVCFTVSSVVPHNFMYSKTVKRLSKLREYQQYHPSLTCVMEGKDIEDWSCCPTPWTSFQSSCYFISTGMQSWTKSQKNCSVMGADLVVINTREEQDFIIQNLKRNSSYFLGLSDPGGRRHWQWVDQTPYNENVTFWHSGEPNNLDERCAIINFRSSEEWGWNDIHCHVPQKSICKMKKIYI
# EXPERIMENTAL PROTOCOL: direct binding FACS, conditioned medium on CHO cells co-expressing BDCA2 and FcεRIγ
# Procedure: Conditioned medium was assayed by direct binding FACS on stably transfected DG44 CHO cells co-expressing full-length BDCA2 and FcεRIγ cDNAs (human or cynomolgus monkey), (relevant expression vectors are human BDCA2/FcεRIγ: pEAG2456, cyno BDCA2/FcεRIγ: pEAG2668).

| BINDER | binding result |
| --- | --- |
| hu24F4 H3/L2 (antibody, V domains shown, Humanized variant, human IgG1/kappa, conditioned medium of 293E cells; also called H3 series of hu24F4) VH: EVQLVESGGGLVKPGGSLRLSCAASGFTFSTYTMSWVRQAPGKGLEWVSTISPGDSFGYYYPDSVQGRFTISRDNAKNSLYLQMNSLRAEDTAVYYCARDIYYNYGAWFAYWGQGTLVTVSS VL: DIQLTQSPSSLSVSVGDRATISCKASQSVDYDGDSYMNWYQQKPGKAPKLLIYAASTLESGVPSRFSGSGSGTDFTLTISSVQPEDFATYYCQQSNEDPRTFGQGTKVEIK | binds |
| hu24F4 H4/L2 (antibody, V domains shown, Humanized variant, human IgG1/kappa, conditioned medium of 293E cells; also called H4 series of hu24F4) VH: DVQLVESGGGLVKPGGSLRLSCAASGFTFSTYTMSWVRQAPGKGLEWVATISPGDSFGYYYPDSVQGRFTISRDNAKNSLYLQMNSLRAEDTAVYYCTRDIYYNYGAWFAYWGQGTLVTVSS VL: DIQLTQSPSSLSVSVGDRATISCKASQSVDYDGDSYMNWYQQKPGKAPKLLIYAASTLESGVPSRFSGSGSGTDFTLTISSVQPEDFATYYCQQSNEDPRTFGQGTKVEIK | binds |

// provenance: patent US20180362652A1
